In this section we review reported Kd values for a set of binders.
Biological target: T1, 10E8-GT10.2 epitope scaffold (designed scaffold 10E8-GT10.2 with …, N-linked glycosylation sites added (positions not given))
T1 chain: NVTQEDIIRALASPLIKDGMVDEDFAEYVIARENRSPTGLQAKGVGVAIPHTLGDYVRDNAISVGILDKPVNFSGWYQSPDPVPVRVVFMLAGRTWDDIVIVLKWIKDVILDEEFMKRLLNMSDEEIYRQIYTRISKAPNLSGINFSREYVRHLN
Number only, in nM; omit the unit.

Answered examples (4):
>  <Binder>
NHP-10E8_MPER-GT10v55_W21-13 (antibody, V domains shown) VH: QLQLQESGPGLVKPSETLSLTCAVSGGSISGGYGWSWIRQPLGKGLEWIGHIFGSIGSTYYNPSLKSRVTISTDTSKNQFSLKLSSVTAADTAVYYCARTRSFYNFWSGYYTRHAFDFWGQGLRVTVSS VL: DIVMTQTPLSLPVTLGEPASISCRSSQSLLDSEDGNTYLEWYLQKPGQSPQLLIYEVSNRASGVPDRFSGSGSDTDFTLKISRVEAEDVGVYYCMQALEFPPTFGQGTKVEIK

>  <Output unit>
nM

>  <Value measured>
1300

$$$$
>  <Binder>
MPER18_d21_45.1_v55_m3_C07 (antibody, V domains shown) VH: QVQLKQSGPGLVQPSQSLSITCTVSGFSLTNYDIHWVRQSPGKGLEWLGVIWSGGSTDYNAGFISRLSISKDNSKSQVFFKMNSLQGDDTAIYYCARGGGYYEDYVMDYWGQGTSVTVSS VL: DIQMTQSPASLSASVGETVTITCRASGNIHNYLAWYQQKQGESPHLLVYNAKTLADGVPSRFSGSDSGTQYSLKINSLQPEDFGSYYCQHFWTTPYTFGGGTKLEIK

>  <Output unit>
nM

>  <Value measured>
985

$$$$
>  <Binder>
NHP-Comp_MPER-GT10v55_W26-04 (antibody, V domains shown) VH: QVQLQESGPGVVKPSETLSLTCAVSGDSISDSYWWSWIRQPPGKGLEWIGYIYGSSTNTNYNPSLKSRVTISKDTSKNQFSLKLSSVTAADTAVYYCARESRWLEEYPLNTFDYWGQGVLVTVSS VL: DIVMTQTPLSLPVTPGEPASISCRSSQSLLDSYGYIHLHWYLQKPGQSPQLLIYLGSNRASGVPDRFSGSGSGTDFTLKISRVEAEDVGVYYCMQTLQTPRTFGQGTKVEIK

>  <Output unit>
nM

>  <Value measured>
20.8

$$$$
>  <Binder>
MPER18_d21_45.2_v55_17 (antibody, V domains shown) VH: QVQLQESGPGLVKPSETLSLTCTVSGGSISSYFWSWIRQPPGKGLEWIGYIYNSGSTNYHPSLKSRVTISVDTSKNQFSLKLSSVTAADTAVYYCAREPPYYDFWSGLSMGVGAFDIWGQGTMVTVSS VL: DVLMTQTPLSLPVSLGDQASISCRSSQSIVHSSGNTYLEWYLQKPGQSPKLLIYKVSNRFSGVPDRIGGSGSGTDFTLKISRVEAEDLGVYFCFQGSHVPWTFGGGTKLEIK

>  <Output unit>
nM

>  <Value measured>
13.2

$$$$

Shift focus to the following entry.
Query: Fill in the blank: the reported Kd of NHP-Comp_MPER-GT10v55_W21-04 (antibody, V domains shown) VH: DVQLVESGGGLVKPGGSLRLSCVASDFTFSSYEMHWVRQAPGKGLEWVSLISESGDTTYYADSVKGRFTISRDNAKNSLFLQMNSLRAEDTAVYYCTRAITVFGVVITHFDYWGQGVLVPVSS VL: QSALTQPPSVSKSLGQSVTISCTGTSSDIGGYYAVSWYQQHSGTAPRLLIYEVSKRPSGVSDRFSGSKSGNTASLTISGLQAEDEADYYCGSFRTGYTYIFGAGTRLTV is ____.
Response: 15.6
